system: U2OS; assay: Incucyte cell viability with U2OS; format: toxicity, cell-based; conditions: human, 0 h, 10 µM, compound concentration 10 uM, replicate number 2, timepoint 0 hours; also: filed as whole numbers so only -1 and 0 and 1 occur
For each of the compounds below, state its Growth Rate.

(Q) Return reported Growth Rate; argument: N#CC1(c2ccccn2)CCN(Cc2cc(C(=O)N3CCCC3)c(=O)n3ccccc23)CC1 [MSD-M1PAM-NC]
(A) 0

(Q) Fill in the blank: the reported Growth Rate of C[C@@H]1CN(c2cc(-c3nn(C)c4ccc(OC5(C)CC5)cc34)ncn2)C[C@H](C)O1 [MLi-2-NC] is ____.
(A) 0

(Q) // query Growth Rate value for entry CCC1(C2=NCCN2)Cc2ccccc2O1 (stereo not drawn) [EFAROXAN]
(A) 1

(Q) Item under review: CC1(C)CNc2cc(NC(=O)c3cccnc3NCc3ccncc3)ccc21.O=P(O)(O)O.O=P(O)(O)O [MOTESANIB DIPHOSPHATE] . Reported Growth Rate?
(A) 1

(Q) Entry under review: O=C(O)c1ccc2c(c1)nc(Nc1cccc(Cl)c1)c1ccncc12 [SILMITASERTIB] . Reported Growth Rate?
(A) 1

(Q) # Growth Rate lookup, item "FC(F)(F)c1c(N2CCC(c3ccccc3)CC2)ccn2c(CC3CC3)nnc12"
(A) 0

(Q) I'd like to know its Growth Rate. The compound in question is "c1ccc2oc(-c3csc(C4CCN(Cc5nc6ncccc6[nH]5)CC4)n3)cc2c1"
(A) 1

(Q) # query: Growth Rate of entry N#Cc1cnc(Nc2cc(NC[C@H]3CNCCO3)c(C(F)(F)F)cn2)cn1 [SRA-737]
(A) 0

(Q) If you can, please state the reported Growth Rate value of N#Cc1ccc(Nc2ccc3[nH]c(=O)[nH]c3c2)c(Cl)c1 [TP-021n] .
(A) 0

(Q) Name the reported Growth Rate value associated with the compound "Nc1nc2c(c(N3CCNCC3)n1)CCC1=C2[C@@H]2CCCC[C@@H]2O1"
(A) 0

(Q) Can you look up the measured Growth Rate of Nc1nc(NCCc2ccc(O)cc2)nc2nc(-c3ccco3)nn12 [ZM-241385] for me?
(A) 0

(Q) Entry CN(C)CCOc1ccc(-c2nc(-c3ccncc3)c(-c3ccc4c(c3)CC/C4=N\O)[nH]2)cc1 [SB590885] : reported Growth Rate = ?
(A) 1

(Q) Form field: reported Growth Rate of CCOc1cc2ncc(C#N)c(Nc3ccc(OCc4cccc(F)c4)c(Cl)c3)c2cc1NC(=O)/C=C/CN(C)C [HKI-357]
(A) 0

(Q) Look up Growth Rate: "COc1cc2c(NC3CCN(C(C)C)CC3)nc(N3CCC(F)(F)CC3)nc2cc1OCCCN1CCCC1"
(A) 0

(Q) Fill in the blank: the reported Growth Rate of Cc1c(Oc2ccc(F)cc2)c(OC(C)C)nn1-c1ccc(C2CC2)cn1 [IPP/CNRS-A019] is ____.
(A) 0

(Q) Fill blank: measured Growth Rate of the compound "CCOc1cc(N2CCC(O)CC2)ccc1Nc1ncc2c(n1)N(C1CCCC1)CCC(=O)N2C" is ____.
(A) 0

(Q) So what does the record say about Growth Rate for CN(C)C/C=C/C(=O)Nc1cc2c(Nc3ccc(F)c(Cl)c3)ncnc2cc1O[C@H]1CCOC1.O=C(O)/C=C\C(=O)O.O=C(O)/C=C\C(=O)O [AFATINIB DIMALEATE] ?
(A) 1

(Q) Reported Growth Rate for "CCc1cc2c(c(CC)n1)CCC(=O)N2Cc1ccc(-c2ccccc2-c2nnn[nH]2)cc1.Cl" : what is it?
(A) 0
